assay: Solubility of in situ salts versus free acid; format: physicochemical; conditions: water, free acid, for comparison with the sodium salt; read-out: aqueous solubility
measured-attribute: solubility

solubility measured on Cc1[nH]c(C=C2C(=O)Nc3ccccc32)c(C)c1CCC(=O)O [free acid] = ~30 µg/mL

====

experiment: pH solubility profile; assay type: physicochemical; conditions: 0.1 M phosphate buffer, pH 6, aqueous buffer, thermodynamic from solid; pH of buffer 6.0 (0.1 M phosphate), average pH at equilibrium 6.06; two lots
measured-attribute: solubility (µg/mL)
Answers are plain numbers, in µg/mL.

solubility measured on Cc1[nH]c(C=C2C(=O)Nc3ccccc32)c(C)c1CCC(=O)O = 2.4

====

assay: physchem; assay type: physicochemical
measured-attribute: logP
Give bare numbers.

logP measured on Cc1[nH]c(C=C2C(=O)Nc3ccccc32)c(C)c1CCC(=O)O = 3.85

====

assay: Solubility of in situ salts versus free acid; format: physicochemical; details: water, aqueous, sodium salt compared to free acid; read-out: solubility
measured-attribute: solubility

solubility measured on Cc1[nH]c(C=C2C(=O)Nc3ccccc32)c(C)c1CCC(=O)O [free acid] = < 100 µg/mL

====

assay: pH solubility profile; type: physicochemical; details: 0.1 M phosphate buffer, pH 7.4, aqueous buffer, thermodynamic from solid; pH of buffer 7.4 (0.1 M phosphate), average pH at equilibrium 7.39
measured-attribute: solubility

solubility measured on Cc1[nH]c(C=C2C(=O)Nc3ccccc32)c(C)c1CCC(=O)O = 19 µg/mL

====

assay: physchem; format: physicochemical; conditions: pH 7.4
measured-attribute: logD
Give bare numbers.

logD measured on Cc1[nH]c(C=C2C(=O)Nc3ccccc32)c(C)c1CCC(=O)O = 1.5

====

assay: physchem; type: physicochemical
measured-attribute: pKa
Answers are plain numbers.

pKa measured on Cc1[nH]c(C=C2C(=O)Nc3ccccc32)c(C)c1CCC(=O)O = 5.02
